assayMethodText: Chemical stability in phosphate buffered saline
Assay type: physicochemical
settings: 0.1 M phosphate buffered saline; 0.1 M PBS pH 7.4, 10 μM, room temperature
Below: a set of entries, each annotated with reported half-life at 10 μM.
readout: half-life at 10 μM

compound="C[C@H]1C[C@H]2CC[C@H]3OC(=O)C([C@@H]1SCC(N)C(=O)O)[C@@]23O (stereo partly drawn) [reference compound]" readout="half-life at 10 μM" recordedmeasurement="0.233 h"
compound="COC(=O)[C@H](CS[C@H]1C2C(=O)O[C@@H]3CC[C@H](C[C@@H]1C)[C@]23O)NC(=O)C(C)C (stereo partly drawn) [Example 5]" readout="half-life at 10 μM" recordedmeasurement="> 2.3 h"
compound="COC(=O)[C@H](CS[C@H]1C2C(=O)O[C@@H]3CC[C@H](C[C@@H]1C)[C@]23O)NC(C)=O (stereo partly drawn) [Example 3]" readout="half-life at 10 μM" recordedmeasurement="> 2.5 h"
compound="C[C@H]1C[C@H]2CC[C@H]3OC(=O)C([C@@H]1SCCS(=O)(=O)[O-])[C@@]23O.[Na+] (stereo partly drawn) [Example 8]" readout="half-life at 10 μM" recordedmeasurement="> 2.5 h"
compound="COC(=O)[C@H](CS[C@H]1C2C(=O)O[C@@H]3CC[C@H](C[C@@H]1C)[C@]23O)NC(=O)OC(C)(C)C (stereo partly drawn) [Example 6]" readout="half-life at 10 μM" recordedmeasurement="> 2.5 h"
compound="C[C@H]1C[C@H]2CC[C@H]3OC(=O)C([C@@H]1N1CCCC1)[C@@]23O.Cl (stereo partly drawn) [drawing 45, reference compound]" readout="half-life at 10 μM" recordedmeasurement="0.3 h"
